B1: Nuclear receptor subfamily 4 group A member 2, residues 260 to 336; numbered along this chain, P43354 (parent)
chain: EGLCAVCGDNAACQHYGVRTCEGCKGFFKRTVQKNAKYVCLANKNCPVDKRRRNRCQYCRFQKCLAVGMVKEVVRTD

variants of: B1; assay: abundance fitness (aPCA) (normalised: wild type 0, dead -1); higher = more abundant; growth selection in yeast, the domain comes from the species named; details: Homo sapiens
observation.type: abundance fitness
One number for each entry.

These recorded examples may help you get a feel for the data.
# mutant.name, reported
rows = [
    ("Q62M", 0.079),
    ("V48R", -0.449),
    ("G68R", -0.314),
]

Lab note: each variant below needs its abundance fitness filled in.
1. Q62G
2. G8D
3. A36W

1: -0.297; 2: -0.459; 3: -0.057

Lab note: each variant below needs its abundance fitness filled in.
1. N43M
2. N54D

1. -0.173
2. 0.135

Lab note: each variant below needs its abundance fitness filled in.
1. L3V
2. K29P
3. F61D

1: -0.054; 2: -0.126; 3: -0.745
